# study target: T1, APC6088-AA
# T1 chain: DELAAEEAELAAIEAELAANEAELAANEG
# assay name: two-hybrid library CCmax;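 note: natural log of median RNA to DNA barcode read ratio; higher means stronger binding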
# applied conditions: mean of both orientations
quantity measured: interaction score
// return just the number, without any unit appended

As a guide, the following entries are already answered.
[[record]]
binder = "DKNAALKAELAAIEAELAAIEAKLAANKG [APC5009-AA]"
assay_value = -1.37

[[record]]
binder = "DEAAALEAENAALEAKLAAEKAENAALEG [APC2474-AA]"
assay_value = -1.54

[[record]]
binder = "DKAAALKAEAAALEAELAAEEAKNAALKG [APC3265-AA]"
assay_value = -1.89


Input: Need interaction score, item DENAALEAKLAAIKAELAAIEAELAAIEG [APC4100-AA]
Output: -1.46

Input: What about this binder? DELAAIEAKNAALKAENAALEAEAAALEG [APC542-AA]
Output: -2.13

Input: What about this binder? DKNAALKAKNAALKAKAAALKAKLAAIKG [APC5531-AA]
Output: -1.44

Input: What about this binder? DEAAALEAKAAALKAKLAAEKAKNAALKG [APC2375-AA]
Output: -1.06
